Data origin, for the record: the nanobody polyreactivity screen of Harvey et al. (2022)

experiment-description: yeast display, Sf9 membrane polyspecificity reagent, FACS + sequencing; frameworks hold sequencing errors
observable: polyreactivity (PSR sort gate)

Example entries begin here.
# residue-codes, reported-result
data = [
    ("QVQLVESGGGIVQAGGSLRLSCAASGSTFYRYVMGWYRQAPGKERELVAAISWSGGSTYYADSVKGRFTISRDNAKNTVYLQMNSLKPEDTAVYYCAAVHKVGWSRHYDYWGQGTQVTVSS", "high polyreactivity"),
    ("QVQLEESGGGLVQAGGSLRLSCAASGRIFAGYAMGWYRQEPGKERELVAAINGSGADTYYADSVKGRFTISRDNAKNTVYLQMNSLKPEDTAVYYCAASPGSQYTGYDYWGQGTQVTVSS", "low polyreactivity"),
    ("QVQLVESGGGLVQAGGSLRLSCAASGSTFEYYAMGWYRQAPGKERELVAAITGSGDNTYYADSVKGRFTISRDYAKNTVYLQMNSLKPEDTAVYYCAATLRVKGQYGRMYYWGQGTQVTVSS", "high polyreactivity"),
    ("QVQLVESGGGLVQAGGSLRLSCAASGRIFRYSAMGWYRQAPGKERELVAAISSDGSTDYADSVKGRFTISRDNAKNTVYLQMNSLKPEDTAVYYCAASVVSYGHDYWGQGTQVTVSS", "low polyreactivity"),
]

QUERY: For the sequence shown here, `QVQLVESGGGLVQAGGSLRLSCAASGSTIFFNAMGWYRQAPGKERELVAGISSSGGSTHYADSVKGRFTISRDNAKNTVYLQMNSLKPEDTAVYYCNAQQYLPSEGDYWGQGTQVTVSS` , give the reported polyreactivity (PSR sort gate).
RESULT: low polyreactivity

====

experiment-description: yeast display, Sf9 membrane polyspecificity reagent, FACS + sequencing; frameworks hold sequencing errors
observable: polyreactivity (PSR sort gate)

# residue-codes, polyreactivity (PSR sort gate)
measured = [
    ("QVQHVDSGGGLFQAAGSLRLSCAASGGTFSFYTMGWSRQGPGKERELVAAIDSTGRTNYADSVKGRFTISRDKAKNTVYLQMNSLKPEDSAVYYCSAGPPRADYDYWGQGTQVTVSS", "low polyreactivity"),
    ("QDQLVESGGGLVQAGGSLRLSCAASGRTFGYYVMGWYRQAPGKERELVAAISRSGGTTYYADSVKGRFTISRDNAKNTVYLQMNSLKPEDTAVYYCATDSRTGYDYWGQGTQVTVSS", "high polyreactivity"),
    ("QVQLVESGGGLVQAGGSLRLSCAASGRIFASYAMGWYRQAPGKERELVAAIDRTDSTYYADSVKGRFTISRDNAKNTVYLQMNSLKPEDTAVYYCAADEYYTFSSFELRRMDYWGQGTQVTVSS", "low polyreactivity"),
    ("QVQLVESGGGLVQAGGCLRLSCAASGLIFIKYTMGWYRQAPGKERELVAVISGSGGSTYYADSVKGRFTISRDNAKNTVYLQMNSLKPEDTAVYYCAARSYALGYGGGYWGQGTQVTVSS", "high polyreactivity"),
    ("QVQLVESGGGLVQAGGSLLLSCAASGITFKWNDMGWYRQAPGKEREFVAAITGSTGSTFYADSVKGRFTISRDNAKNSVYLQMNSLNTEDTAVYYCAAGPWFYYWGQGTQVTVSS", "low polyreactivity"),
]

Batch: polyreactivity (PSR sort gate) for all items listed.
1. QVQLVESGGGLVQAGGSLRLSCAASGFIFDYYAMGWYRQAPGKEWELVAGITRDGSTNYADSVKGRFTISRDNAKNTVYLQMNSLKPEDTAVYYCAAGPPRTRYRNARFDYWGQGTQVTVSS
2. QVQLVESGGGLVQAGGSLRLSCAASGYTFFLNAMGWYRPAPGNERELVAVITNVGSTYYADSVKGRFTISRDNAKNTVYLQMHSLKPEDTAVYYCAAEYLAYYSGYDYWGQGTQVTVSS
3. QVQLVESGGGLVQAGGSLRLSCAASGSILLRNTMGWYRQAPGKERELVAAISWRGGSTYYADSVKGRFTISRDNAKNTVYLQMNSLKPEDTAVYYCAARWVASHKGGYWGQGTQVTVSS

RESULT:
["high polyreactivity", "high polyreactivity", "high polyreactivity"]

Batch: polyreactivity (PSR sort gate) for all items listed.
1. QVQLVESGGGLVQAGGSLPLSCAASRLIFTPYAMGWYIQAPGKERELVAAINYGGSRTYYADSVKGRFTISRDNAKNTVYLQMNSLKPEDTAVYYCAARGYTLSYVDMYYWGQGTQVTVSS
2. QVQLVESGGGIVQAGGSLRLSCAASGRIFQRYTMGWYRQAPGKEREFVAAITYSGGSTHYADSVKGRFTISRDNAKNTVYLQMNSLKPEDTAVYYCNADRYYGRGYGYWGQGTQVTVSS
3. QVQLVESGGGLVQAGGSLRLSCAASGFIFYTYAMGWYRQAPGKERELGADITSGGSTYYADSVKGRFTISRDNAKNTVYLQMNSLKPEDTAVYYCAADPGYPANRTEWRDFDYWGQGTQVTVSS
4. QVQLVESGGGLVQAGGSLRLSCAASGRIFQGYAMGWYRPAPGKERELLAAITVRGGTTYYADSVKGRFTISRDNAKNTVYLQMNSLKPEDTAVYYCNAAKLIHGYQSVYPGSNSRYYYWGQGTQVTVSS
5. QGQLVESGGGLVQAGGSLRLSCAASGRTFYLNAMGWYRQAPGKERELVAAINRGTRTYYADSVKGRFTISRDNAKNTVFLQMNSLKPDETAVYYCASVPRYYYSSSYTMDYWGQGTQVTVSS
6. HVQLVESGGGLVQAGGSLRLSCAASGFIFRKYAMGWYRQAPGKERELVAAISGRADSTYYADSVKGRFTISRDNAKNTVYLEMISLKPEDTAVYYCAADWLSKIGKGYDYWGQGTQVTVSS
7. QVQLVESGGGLVQAGGSLRLSCAASGTIFFPNAMGWYREAPGKERELVAAISWSGDSTYADSVKGRFTISRDNAKNTVYLQMNSLKPQDTAVYYCAAVYLWWSYEFDYWGQGTQVTVSS
8. QVQLVESGGGLVQAGGSLRLSCAASGSTFRRNAMGGYRQAPGKERELVAAITSTDSTYYADSVKGRFTISRDNAKNSVYLQMNSLKPEDTAVYYCAKGYWWGGEMGYWGQGTQVTVSS

RESULT:
high polyreactivity
low polyreactivity
low polyreactivity
low polyreactivity
high polyreactivity
high polyreactivity
low polyreactivity
low polyreactivity

Batch: polyreactivity (PSR sort gate) for all items listed.
1. QVQLVESGGGLVQAGGSLRIRCAASGRIFPYYAMGWYRQAPGKERDLVATITSGGSTYYADTVKGRFTISRDNSKNTVYLQMKSLKPEDTAVYYCAARYPSIYYYRYDFWGQGTQVTVSS
2. QVQLEESGGGLVQAGGSLRLSCAASGSIFDSYAMGWYRAAPGKERELVATINTSGGSTYYADSVKGRFTIHDNAKNTVYLQMNSLKPEDTAVYYCNAGRWVYWQNNFGDYGYWGQGTQVTVSS
3. QVQLVESGGGLVQAGGSLRLSCAASGSIFNRYTMGWYRQAPGKEREFVAAIRNSGSRTYYADSVKRRFTISRDNAKNTVYLQMNSLKPEDTAVYYCAADGPLISSESYYWGQGTQVTVSS
4. QVQLVESGGGLVQAGGSLRLSCAASGRTFARYAMGWYRPAPGKERELVAAISSSGGSTYYADSVKWRFTISRDNAKNTVYLQMNSLKPEDTAVYYCVTYRNWWYDFWGQGTQVTGSS

RESULT:
1. high polyreactivity
2. low polyreactivity
3. low polyreactivity
4. high polyreactivity

QUERY: For the sequence shown here, `QVQLVESGGGLVQAGGSLRLSCAASGSTFSNYAMGWYRQAPGKERELVAAISVRGGSTYYADSVKGRFTISRDNAKNTVYLQMNSLKPEDTAVYYCAKYYYYLRSARKYDYWGQGTQVTVSS` , give the reported polyreactivity (PSR sort gate).
RESULT: high polyreactivity

====

experiment-description: yeast display, Sf9 membrane polyspecificity reagent, FACS + sequencing; frameworks hold sequencing errors
observable: polyreactivity (PSR sort gate)

Example entries begin here.
# residue-codes, polyreactivity (PSR sort gate)
measured = [
    ("QDQIVESGGGLVQAGGSLRLTCAASGLNIYDNMGWYRQAPGKERELVAAISSSGGSTSYADSVKGRFTISRDNAKNTFYVQMNSLKPEDTAVYYCAADSYPAYLGFVGFDYWGQGTQVTVSS", "low polyreactivity"),
    ("QVQLVESGGGLVQAGGSLRLSCAASGRTLVDYAMGWYRQAPGKERELVAAINFSGGSTNYADSVKGRFTISRDNAKNTVYLQMNSLKPEDTAVYYCNKEGRPDRDYWGQGTQVTVSS", "low polyreactivity"),
    ("QVQLQESGGGLVQAGGSQRLSSAASGYNFYFQYMGWYRQAPGKEREFVAAISDGANTNNADSVKGRFTISRDNAKNTEYLQMNSLKPEDSAVYYCAVYADDNYYYIYWGQGTQVTVSS", "low polyreactivity"),
    ("QVQLVESGVGLVQAGGSLRLSCAASGRIFSKYAMGWYRQAPGKERELVAAISANGGGSTYYADSVKGRFTISRDNAKNTFYLQMNSLKPEDSAVYYCAALAYSTTRGRLDYWGQGTQVTVSS", "high polyreactivity"),
    ("QVQLVESGGGLVQAGGSLRLSCAASGSIFYFNAMGWYRQAPGKERELVAAINWRGDRTYYADSVKRRFTISRDNAKNTVYLQMNSLKPEDTAVYYCNAVRVHAYSTGEYGYWGQGTQVTVSS", "high polyreactivity"),
]

Batch: polyreactivity (PSR sort gate) for all items listed.
1. QVQLVESGGGLVQAGGSLRLSCAASGSIFPGYAMGWYRQAPGKERELVAAISSGGSTNYADSVKGRFTISRDNAKNTVYLQMNSLKPEDTAVYYCAARVWRYHVYAFYYWGQGTQVTVSS
2. QVQLVESGGGLVQAGGSLRLSCAPCGSIFSSYAMGWYRQAPGQDWELVAAISSGGCITYYADSVKGRFTISRDNAKNTVYLQMHSLKPEDTAVYYCNARVARSNYGWYYDWGQGTQVTVSS
3. QVQLEESGGGLVQAGGSLRLSCGASGFTFRGYAMGWYIQAPGKERELVAAISKRGGSTYYADSVKGRFTISRDNAKNTVYLQMNSLKPEDTAVYYGAAEDTVYWGGVYYWTVYYWGQGTQVNVSS
4. QVQLVESGGGLVQAGGSLRLSCAASGSIISFYAMGWYRQAPGKEREMVAVISDIGGSTYYADSVKGRFTISRDNAKNTDYLEMNSLKPEDTAVYYCAAGCHARTWYAYYYWGQGTQVTVSS
5. QVQLVESGGGLFQAGGSLRLSCAPSGRTFSHYAMGWYRQAPGKERELVAAISWSGGRTYYADSVKGRFTISRYNAKNTVYLQMNSLKPEDTAVYYCATDKVSNRRYDYWGQGTQVTVSS
6. QVQLVESGGGLVQAGGSLRLSCAAYGRTIRRNAMGWYRQAPGKERELVAGISGSGTITYADSVKGRFTIARDNAKNTVYLQMNSLKPEDTAVYYCAARRKSFYTFYYWGQGTQVTVSS

RESULT:
high polyreactivity
high polyreactivity
high polyreactivity
low polyreactivity
high polyreactivity
high polyreactivity
